- Target system: mGAT1 (Mus musculus, UniProt P31648)
- Construct: expressed in transfected cells
- Experimental details: [3H]GABA uptake at mGAT1 stably expressed in HEK-293 cells
- Format: cell-based
- Measurement context: read-out: IC50, low affinity component; biphasic fit, N=1 experiment
pIC50: −log10 of the molar value.
Value type: pIC50

1) Cc1ccsc1C(=CCCN(C)[C@H]1CCCC[C@H]1C(=O)O)c1sccc1C: 3.12

====

- Target system: hBGT1 (Homo sapiens, UniProt P48065)
- Construct: expressed in transfected cells; host or cells: tsA201 (transient)
- Sequence (P48065 1-614): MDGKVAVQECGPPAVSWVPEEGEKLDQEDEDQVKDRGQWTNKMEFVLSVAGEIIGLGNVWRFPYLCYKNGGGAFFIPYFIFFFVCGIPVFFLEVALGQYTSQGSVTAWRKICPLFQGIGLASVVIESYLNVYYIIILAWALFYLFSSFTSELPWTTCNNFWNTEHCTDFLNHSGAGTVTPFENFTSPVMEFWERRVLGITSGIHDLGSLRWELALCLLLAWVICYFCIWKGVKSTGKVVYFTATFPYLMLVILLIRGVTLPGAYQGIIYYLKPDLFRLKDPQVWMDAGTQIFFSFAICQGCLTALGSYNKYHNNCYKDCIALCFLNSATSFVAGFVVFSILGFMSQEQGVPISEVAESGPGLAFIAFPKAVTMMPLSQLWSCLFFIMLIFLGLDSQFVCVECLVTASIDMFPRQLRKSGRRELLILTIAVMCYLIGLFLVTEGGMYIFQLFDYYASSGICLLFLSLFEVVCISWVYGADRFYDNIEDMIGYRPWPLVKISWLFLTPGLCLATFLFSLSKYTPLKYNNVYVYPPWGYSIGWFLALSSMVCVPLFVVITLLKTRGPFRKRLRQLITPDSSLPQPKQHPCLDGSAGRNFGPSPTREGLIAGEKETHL
- Experimental details: [3H]GABA uptake at hBGT1 stably expressed in CHO cells
- Assay type: cell-based
- Measurement context: single IC50, N=2, fit not given; CHO; read-out: IC50
Value type: IC50 (µM)

1) Cc1ccsc1C(=CCCN(C)[C@H]1CCCC[C@H]1C(=O)O)c1sccc1C [SBV2-114]: 447

Where these numbers come from: paper PMC7297817
